assay: Microsomal stability in rat liver microsomes assessed as half life; type: ADME, Microsome
measurement kind: half-life (h)
Answer in h, number only, no unit symbol.

Using the record for COc1cc2cc(COCc3c(-c4ccc(F)cc4)nc(N(C)S(C)(=O)=O)nc3C(C)C)oc(=O)c2cc1OC , report its half-life.
1.83

---

test system: HepG2; test: Cytotoxicity against human HepG2 cells assessed as inhibition of cell growth at 10 uM measured after 24 hrs by MTT assay (reference value: 0.21%); assay type: functional
Decision: inhibition at 10 µM >= 30% yields Condition met, all other cases yield Condition not met.

Check out these entries, answers already filled in.
COc1ccc2c(c1)/C(=C/COCc1c(-c3ccc(F)cc3)nc(N(C)S(C)(=O)=O)nc1C(C)C)OC2=O : Condition met
CC(C)c1nc(N(C)S(C)(=O)=O)nc(-c2ccc(F)cc2)c1COC/C=C1\OC(=O)c2cc(Cl)ccc21 : Condition not met
COc1cccc2c1/C(=C/COCc1c(-c3ccc(F)cc3)nc(N(C)S(C)(=O)=O)nc1C(C)C)OC2=O : Condition not met
COc1ccc2c(=O)oc(COCc3c(-c4ccc(F)cc4)nc(N(C)S(C)(=O)=O)nc3C(C)C)cc2c1 : Condition met
COc1ccc2c(c1)C(=O)O/C2=C\COCc1c(-c2ccc(F)cc2)nc(N(C)S(C)(=O)=O)nc1C(C)C : Condition met

# check: inhibition at 10 µM of CC(C)c1nc(N(C)S(C)(=O)=O)nc(-c2ccc(F)cc2)c1COCc1cc2ccc(Br)cc2c(=O)o1 is greater than or equal to 30%
Condition not met

Entry COc1ccc2cc(COCc3c(-c4ccc(F)cc4)nc(N(C)S(C)(=O)=O)nc3C(C)C)oc(=O)c2c1 : is its inhibition at 10 µM no less than 30%?
Condition met

---

test system: HCT-116; test: Cytotoxicity against human HCT-116 cells assessed as inhibition of cell growth measured after 24 hrs by MTT assay; type: functional, cell-based; details: HCT-116, 24 h
measurement kind: pIC50
By convention, pIC50 is the negative base-10 log of a molar concentration.

# pIC50 lookup, item COc1cc2cc(COCc3c(-c4ccc(F)cc4)nc(N(C)S(C)(=O)=O)nc3C(C)C)oc(=O)c2cc1OC
8.35

---

Record set of pIC50 for target or system RAC-alpha serine/threonine-protein kinase (Homo sapiens, UniProt P31749).
Reminder that pIC50 means the negative base-10 logarithm of the concentration expressed in mol/L.

COc1cc2c(cc1OC)/C(=C/COCc1c(-c3ccc(F)cc3)nc(N(C)S(C)(=O)=O)nc1C(C)C)OC2=O : 5.43

Hello, I am looking for reported pIC50 with RAC-alpha serine/threonine-protein kinase (Homo sapiens, UniProt P31749) for COc1cc2cc(COCc3c(-c4ccc(F)cc4)nc(N(C)S(C)(=O)=O)nc3C(C)C)oc(=O)c2cc1OC . Could you help?
5.37

---

test: Cytotoxicity against human HEK cells assessed as inhibition of cell growth at 10 uM measured after 24 hrs by MTT assay (reference value: 0.11%); type: cell-based
inhibition at 24 h, 10 µM values by entry
Give the number; % is assumed, so skip it.

Reference set (5 entries):
COc1ccc2c(=O)oc(COCc3c(-c4ccc(F)cc4)nc(N(C)S(C)(=O)=O)nc3C(C)C)cc2c1 : 3.4
CC(C)c1nc(N(C)S(C)(=O)=O)nc(-c2ccc(F)cc2)c1COC/C=C1\OC(=O)c2cc(F)ccc21 : 3.1
CC(C)c1nc(N(C)S(C)(=O)=O)nc(-c2ccc(F)cc2)c1COCc1cc2ccc(F)cc2c(=O)o1 : 3.1
CC(C)c1nc(N(C)S(C)(=O)=O)nc(-c2ccc(F)cc2)c1COC/C=C1\OC(=O)c2ccccc21 : 2.1
Cc1ccc2c(c1C)/C(=C/COCc1c(-c3ccc(F)cc3)nc(N(C)S(C)(=O)=O)nc1C(C)C)OC2=O : 1.9

Next compound, please.
GET /values?readout=inhibition at 24 h, 10 µM&item= CC(C)c1nc(N(C)S(C)(=O)=O)nc(-c2ccc(F)cc2)c1COCc1cc2cc(Cl)ccc2c(=O)o1
1.3

---

experiment: Inhibition of Protein kinase A (unknown origin); parameters: species or system Homo sapiens
pIC50: −log10 of the molar value.
measurement kind: pIC50

COc1cc2c(cc1OC)/C(=C/COCc1c(-c3ccc(F)cc3)nc(N(C)S(C)(=O)=O)nc1C(C)C)OC2=O : < 5.00

For the next question, use this compound.
What value of measured pIC50 is listed for COc1cc2cc(COCc3c(-c4ccc(F)cc4)nc(N(C)S(C)(=O)=O)nc3C(C)C)oc(=O)c2cc1OC ?
< 5.00

---

system: HepG2; assay: Cytotoxicity against human HepG2 cells assessed as inhibition of cell growth at 10 uM measured after 24 hrs by MTT assay (reference value: 0.21%); type: functional
Would you please tag the item 1 (yes) when its inhibition at 10 µM is 20% or above, and 0 (no) when it is below?

Some solved cases for reference:
CC(C)c1nc(N(C)S(C)(=O)=O)nc(-c2ccc(F)cc2)c1COCc1cc2cc(Cl)ccc2c(=O)o1 : 0 (no)
COc1cccc2c1C(=O)c1c(O)c3c(c(O)c1C2=O)C[C@@](O)(C(=O)CO)C[C@@H]3O[C@H]1C[C@H](N)[C@H](O)[C@H](C)O1 [DOXORUBICIN] : 1 (yes)
CC(C)c1nc(N(C)S(C)(=O)=O)nc(-c2ccc(F)cc2)c1COC/C=C1\OC(=O)c2ccccc21 : 0 (no)
CC(C)c1nc(N(C)S(C)(=O)=O)nc(-c2ccc(F)cc2)c1COC/C=C1\OC(=O)c2ccc(F)cc21 : 1 (yes)
Cc1ccc2cc(COCc3c(-c4ccc(F)cc4)nc(N(C)S(C)(=O)=O)nc3C(C)C)oc(=O)c2c1 : 1 (yes)

Assess whether reported inhibition at 10 µM for COc1cc2cc(COCc3c(-c4ccc(F)cc4)nc(N(C)S(C)(=O)=O)nc3C(C)C)oc(=O)c2cc1OC sits at 20% or higher.
1 (yes)

---

experiment: Cytotoxicity against human HEK cells assessed as inhibition of cell growth at 10 uM measured after 24 hrs by MTT assay (reference value: 0.11%); assay type: cell-based
measurement kind: inhibition at 24 h, 10 µM (%)
Unit % implied. Number only.

CC(C)c1nc(N(C)S(C)(=O)=O)nc(-c2ccc(F)cc2)c1COC/C=C1\OC(=O)c2cc(Br)ccc21 : 1.9
CC(C)c1nc(N(C)S(C)(=O)=O)nc(-c2ccc(F)cc2)c1COCc1cc2ccc(Br)cc2c(=O)o1 : 2.8
COc1cccc2c1/C(=C/COCc1c(-c3ccc(F)cc3)nc(N(C)S(C)(=O)=O)nc1C(C)C)OC2=O : 4.1
Cc1ccc2c(c1)C(=O)O/C2=C\COCc1c(-c2ccc(F)cc2)nc(N(C)S(C)(=O)=O)nc1C(C)C : 1.6
COc1ccc2c(c1)C(=O)O/C2=C\COCc1c(-c2ccc(F)cc2)nc(N(C)S(C)(=O)=O)nc1C(C)C : 3.2
CC(C)c1nc(N(C)S(C)(=O)=O)nc(-c2ccc(F)cc2)c1COC/C=C1\OC(=O)c2ccc(F)cc21 : 1.7
CC(C)c1nc(N(C)S(C)(=O)=O)nc(-c2ccc(F)cc2)c1COCc1cc2ccc(Cl)cc2c(=O)o1 : 2.3
CC(C)c1nc(N(C)S(C)(=O)=O)nc(-c2ccc(F)cc2)c1COC/C=C1\OC(=O)c2ccc(Cl)cc21 : 3.3

Which inhibition at 24 h, 10 µM is reported for this compound? COc1ccc2c(c1)/C(=C/COCc1c(-c3ccc(F)cc3)nc(N(C)S(C)(=O)=O)nc1C(C)C)OC2=O
3.8

Name the reported inhibition at 24 h, 10 µM value associated with the compound CC(C)c1nc(N(C)S(C)(=O)=O)nc(-c2ccc(F)cc2)c1COC/C=C1\OC(=O)c2cccc(Cl)c21
3.7

Form field: reported inhibition at 24 h, 10 µM of COc1ccc2cc(COCc3c(-c4ccc(F)cc4)nc(N(C)S(C)(=O)=O)nc3C(C)C)oc(=O)c2c1
3.7

Returns the measured inhibition at 24 h, 10 µM for the input compound. Input: CC(C)c1nc(N(C)S(C)(=O)=O)nc(-c2ccc(F)cc2)c1COC/C=C1\OC(=O)c2cc(Cl)ccc21
2.9

Looking for the measured inhibition at 24 h, 10 µM of COc1cc2c(cc1OC)/C(=C/COCc1c(-c3ccc(F)cc3)nc(N(C)S(C)(=O)=O)nc1C(C)C)OC2=O , can you help?
4.3

Quick one: inhibition at 24 h, 10 µM for Cc1cc(Cl)cc2c1/C(=C/COCc1c(-c3ccc(F)cc3)nc(N(C)S(C)(=O)=O)nc1C(C)C)OC2=O ?
2.2

// returns reported inhibition at 24 h, 10 µM for input COc1cc2cc(COCc3c(-c4ccc(F)cc4)nc(N(C)S(C)(=O)=O)nc3C(C)C)oc(=O)c2cc1OC
4.9

What inhibition at 24 h, 10 µM value was documented for this compound, Cc1ccc2cc(COCc3c(-c4ccc(F)cc4)nc(N(C)S(C)(=O)=O)nc3C(C)C)oc(=O)c2c1 ?
3.2
